Measured values drawn from ChEMBL document CHEMBL5058577 for this set.

system: Fibroblast; test: Multiplex assay against human fibroblast; format: toxicity, cell-based; settings: 24 h, 10 µM, compound concentration 10 uM, replicate 1
endpoint label: Population Apoptotic (%)

1) Cc1nn(C)c2nc(NNC(=O)Nc3cc(Cl)nc(Cl)c3)cc(C(C)C)c12: 52
2) C[C@@H]1CC(=O)Nc2cccc(-c3ccc4c(c3)c(-c3cnn(C)c3)nn4C)c2N1: 75
3) COc1cc2nc(N3CCN(C(=O)COc4c(OC)cccc4C(C)C)CC3)nc(N)c2cc1OC.Cl.Cl: 40
4) COc1ccc2c(c1OCc1ccccc1)C[C@@H](C(=O)O)N(C(=O)C(c1ccccc1)c1ccccc1)C2: 53
5) COc1cc(OC2CCN(C(C)=O)CC2)ccc1C(=O)N1CCC(N2C(=O)OCc3ccccc32)CC1: 36
6) O=C(O)CCC/C=C\CC1C(O)CC(O)C1/C=C/C(O)COc1cccc(Cl)c1 (centres undefined): 41
7) Cc1c(Cc2ccc3ccccc3n2)c2cc(F)ccc2n1CC(=O)O: 66
8) N[C@](CC1c2ccccc2Oc2ccccc21)(C(=O)O)[C@H]1C[C@@H]1C(=O)O: 57
9) CN1CCC(C(=O)c2cccc(NC(=O)c3c(F)cc(F)cc3F)n2)CC1: 54

====

tested on: Fibroblast; experiment: Multiplex assay against human fibroblast; type: toxicity, cell-based; settings: 24 h, 1 µM, compound concentration 1 uM, replicate 1
endpoint label: Population Fragmented Nuclei (%)

1) N[C@](CC1c2ccccc2Oc2ccccc21)(C(=O)O)[C@H]1C[C@@H]1C(=O)O: 12
2) Nc1nc(CC(=O)Nc2ccc(CCNC[C@H](O)c3ccccc3)cc2)cs1: 17
3) COCCCN1CCC(NC(=O)c2cc(Cl)c(N)c3c2OCC3)CC1 [PRUCALOPRIDE]: 20
4) CN(C)C/C=C/C(=O)Nc1ccc(C(=O)N2CCCC(Nc3ncc(Cl)c(-c4c[nH]c5ccccc45)n3)C2)cc1 (stereo not drawn): 25
5) O=C(O)CCC/C=C\CC1C(O)CC(O)C1/C=C/C(O)COc1cccc(Cl)c1 (stereo not drawn): 19
6) Cc1cc(=O)n(C)c2cc(N3C(=O)CC[C@H](NS(=O)(=O)CC(C)C)[C@H]3c3ccc(Cl)cc3)ccc12: 18
7) COc1ccc2[nH]c(I)c(CCNC(C)=O)c2c1: 16
8) COc1cc(Nc2ncc3c(n2)-c2ccc(Cl)cc2C(c2c(F)cccc2OC)=NC3)ccc1C(=O)O: 12

====

Recorded Population Normal (%) by entry
test system: U2OS; assay: Multiplex assay against U2OS; format: toxicity, cell-based; settings: human, 24 h, 1 µM, compound concentration 1 uM, replicate 1
endpoint label: Population Normal (%)

1) O=C(NCCNCC(O)COc1ccc(O)cc1)N1CCOCC1.O=C(NCCNCC(O)COc1ccc(O)cc1)N1CCOCC1.O=C(O)/C=C/C(=O)O (configuration not stated) [XAMOTEROL FUMARATE]: 99
2) COc1cc(C(=O)N2CC[C@@H](O)[C@@H](N)C2)cc2nc(-c3cc4ccccc4n3CC3CC3)n(C)c12.Cl: 96
3) CSc1nc(NC2CCCC2)c([N+](=O)[O-])c(NC2CCCC2)n1 [GS-39783]: 97
4) CCC(=O)OCC(=O)[C@@]1(OC(=O)CC)[C@@H](C)C[C@H]2[C@@H]3CCC4=CC(=O)C=C[C@]4(C)[C@@]3(Cl)[C@@H](O)C[C@@]21C [BECLOMETHASONE DIPROPIONATE]: 97
5) COc1cc2nc(N3CCN(C(=O)c4ccco4)CC3)nc(N)c2cc1OC.Cl [PRAZOSIN HYDROCHLORIDE]: 98
6) Cc1cc(=O)n(C)c2cc(N3C(=O)CC[C@H](NS(=O)(=O)CC(C)C)[C@H]3c3ccc(Cl)cc3)ccc12: 96
7) C[C@H](NC(=O)CNC(=O)c1cccc(Cl)c1)c1ccccc1: 97
